System: FLK-1 receptor
Assay: FLK-1 Assay (cellular/catalytic ELISA, VEGF-stimulated phosphotyrosine)
Assay type: cell-based
Set-up: concentration or dose not given beside the values
Recorded Flk Kinase % Inhibition (P.110) for the following molecules
Kindly provide the numeric value in % only, without the unit symbol.

Solved cases (5 shown):
Cc1c(Br)cc(Br)c2c1C(=Cc1cccc(Br)c1)C(=O)N2; −13.4
Cc1c(Br)cc(Br)c2c1C(=Cc1cc(Cl)cc(Cl)c1O)C(=O)N2; 4.6
O=C1Nc2ccc(S(=O)(=O)Nc3ccc(C(F)(F)F)cc3)cc2C1=Cc1cc(Cl)cc(Cl)c1O; 26.9
O=C1Nc2ccc(I)cc2C1=Cc1ccccc1F; 5.0
O=C1Nc2c(Br)cc(Br)cc2C1=Cc1cc(Cl)ccc1O; 0.6

**Query** Using the record for O=C1Nc2ccc(S(=O)(=O)N3CCOCC3)cc2C1=Cc1ccccc1Cl , report its Flk Kinase % Inhibition (P.110).
**Result** 3.7

**Query** Tell me the measured Flk Kinase % Inhibition (P.110) of Cc1c(Br)cc(Br)c2c1C(=Cc1cc3c([nH]1)CCCC3)C(=O)N2 , please.
**Result** −8.4

**Query** For the molecule shown here, Cc1c(Br)cc(Br)c2c1C(=Cc1cc(O)c(O)c(Br)c1)C(=O)N2 , give the reported Flk Kinase % Inhibition (P.110).
**Result** −20.2

**Query** I am curious: what Flk Kinase % Inhibition (P.110) value has been reported for COc1cc(Br)cc(C=C2C(=O)Nc3c(Br)cc(Br)c(C)c32)c1O ?
**Result** 4.8

**Query** Return reported Flk Kinase % Inhibition (P.110); argument: O=C1Nc2ccc(CCCl)cc2C1=Cc1ccc(O)c(Br)c1
**Result** 8.5

**Query** Value lookup for Flk Kinase % Inhibition (P.110); key = Cc1c(Br)cc(Br)c2c1C(=Cc1c(F)cccc1F)C(=O)N2
**Result** 29.1

**Query** What does the data say about its Flk Kinase % Inhibition (P.110)? Entry: Cc1c(Br)cc(Br)c2c1C(=Cc1ccc(Br)s1)C(=O)N2
**Result** 9.9

**Query** What measured Flk Kinase % Inhibition (P.110) goes with Cc1c(Br)ccc2c1C(=Cc1ccccc1C#N)C(=O)N2 ?
**Result** 9.6

**Query** Which value of Flk Kinase % Inhibition (P.110) has been reported for Cc1cccc(C=C2C(=O)Nc3ccc(Br)c(C)c32)c1 in the records?
**Result** 2.8

**Query** Can you share its Flk Kinase % Inhibition (P.110)? I mean this molecule: O=C1Nc2c(Br)cc(Br)cc2C1=Cc1cccc2ccccc12
**Result** −6.3

**Query** Recorded Flk Kinase % Inhibition (P.110) of COc1cc(C=C2C(=O)Nc3c(Br)cc(Br)c(C)c32)cc(OC)c1 , please.
**Result** −4.3
